Tested on: HeLa
Test: Concentration of compound that decreased the percentage of formazan production in treated HRV-14 virus infected cells to that produced in uninfected cells
Format: functional
Details: Homo sapiens
The entries below come with measured CC50 values attached.

[
  {
    "Compound": "CC(C)C[C@H](NC(=O)OCc1ccccc1)C(=O)N[C@@H](Cc1ccccc1)C(=O)N[C@H](/C=C/C(=O)N1CCc2cccc(S(C)(=O)=O)c21)CCC(N)=O",
    "CC50": "> 320 µM"
  },
  {
    "Compound": "CC(C)C[C@H](NC(=O)OCc1ccccc1)C(=O)N[C@@H](Cc1ccccc1)C(=O)N[C@H](/C=C/[N+](=O)[O-])CCC(N)=O",
    "CC50": "100 µM"
  },
  {
    "Compound": "CC(C)C[C@H](NC(=O)OCc1ccccc1)C(=O)N[C@@H](Cc1ccccc1)C(=O)N[C@H](/C=C/C(=O)OC1CCCCC1)CCC(N)=O",
    "CC50": "> 320 µM"
  }
]

Any idea what CC50 came out for `CC(C)C[C@H](NC(=O)OCc1ccccc1)C(=O)N[C@@H](Cc1ccccc1)C(=O)N[C@H](/C=C/C(=O)c1ccccc1)CCC(N)=O` on HeLa?
16 µM

Any idea what CC50 came out for `CC(C)C[C@H](NC(=O)OCc1ccccc1)C(=O)N[C@@H](Cc1ccccc1)C(=O)N[C@H](/C=C/C(=O)N1CCCO1)CCC(N)=O` on HeLa?
> 320 µM

Any idea what CC50 came out for `CC(C)C[C@H](NC(=O)OCc1ccccc1)C(=O)N[C@@H](Cc1ccccc1)C(=O)N[C@H](/C=C/c1ccno1)CCC(N)=O` on HeLa?
> 320 µM

Any idea what CC50 came out for `CC(C)C[C@H](NC(=O)OCc1ccccc1)C(=O)N[C@@H](Cc1ccccc1)C(=O)N[C@H](/C=C1\CCOC1=O)CCC(N)=O` on HeLa?
> 320 µM

Any idea what CC50 came out for `CC(C)C[C@H](NC(=O)OCc1ccccc1)C(=O)N[C@@H](Cc1ccccc1)C(=O)N[C@H](/C=C/S(C)(=O)=O)CCC(N)=O` on HeLa?
> 320 µM

Any idea what CC50 came out for `CC(C)C[C@H](NC(=O)OCc1ccccc1)C(=O)N[C@@H](Cc1ccccc1)C(=O)N[C@H](/C=C/C(=O)N1CCOC1=O)CCC(N)=O` on HeLa?
> 100 µM

Any idea what CC50 came out for CC(C)C[C@H](NC(=O)OCc1ccccc1)C(=O)N[C@@H](Cc1ccccc1)C(=O)N[C@H](/C=C/C(=O)N1CCC(O)C1)CCC(N)=O (stereo partly drawn) on HeLa?
> 320 µM

Any idea what CC50 came out for `CC(C)C[C@H](NC(=O)OCc1ccccc1)C(=O)N[C@@H](Cc1ccccc1)C(=O)N[C@H](/C=C/C(=O)OCC(C)(C)C)CCC(N)=O` on HeLa?
> 100 µM

Any idea what CC50 came out for `CC(=O)N1CC/C(=C\[C@H](CCC(N)=O)NC(=O)[C@H](Cc2ccccc2)NC(=O)[C@H](CC(C)C)NC(=O)OCc2ccccc2)C1=O` on HeLa?
> 100 µM

Any idea what CC50 came out for `CC(C)C[C@H](NC(=O)OCc1ccccc1)C(=O)N[C@@H](Cc1ccccc1)C(=O)N[C@H](/C=C/c1cocn1)CCC(N)=O` on HeLa?
> 100 µM
